- Tested on: S. epidermidis ATCC 12228
- EXPERIMENT: In vitro antimicrobial activity, MIC by broth micro-dilution
- Type: cell-based
- CONDITION_DETAILS: Staphylococcus epidermidis, ATCC12228, read-out: MIC
- Procedure: In vitro antimicrobial activity of each compound was determined by measuring minimal inhibitor concentrations (MICs) using the broth micro-dilution technique as approved by the Clinical and Laboratory Standards Institute (CLSI). The microbiological panel examined contains a number of bacterial species including E. coli MG1655, P. aeruginosa, S. aureus, and S. epidermidis. […] MICs were periodically checked plating serial dilutions of MIC wells and quantitatively determining viable colonies.
MEASURE: MIC (µg/mL)
Give bare numbers, in µg/mL.

CCCCCCCCCCCCCCCC(=O)N(C)[C@H](CO)C(=O)N[C@H](C)C(=O)NCC(=O)N(C)[C@@H]1C(=O)N[C@@H](C)C(=O)N[C@H](C(=O)NCC(N)=O)Cc2ccc(O)c(c2)-c2cc1ccc2O [Compound 26] :: 32

Consider now this further compound.
Quick check: MIC of CCCCCCCCCCCCCCCC(=O)N(C)[C@H](CO)C(=O)N[C@H](C)C(=O)NCC(=O)N(C)[C@@H]1C(=O)N[C@@H](C)C(=O)N[C@H](C(=O)O)Cc2ccc(O)c(c2)-c2cc1ccc2O [Compound 1, arylomycin C16] ?
2

Just for reference, patent US10501493B2 is where these values come from.
